Values compiled from PubChem BioAssay AID1347420.

system_name: Sulfhydryl oxidase 1 (Homo sapiens)
procedure_details: inhibition of human sulfhydryl oxidase QSOX1 – biochemical, HyperBlu H2O2 luminescence, HTS, primary screen (AID 1347420); further: values above 100% were filed as inconclusive
measurement_setup: recombinant QSOX1, HyperBlu H2O2 luminescence; at 12.5 µM; hits give high values; active = any value above zero
About 980 (75%) of roughly 1,300 compounds were called active. About 4% were inconclusive and are not listed. Some of the results follow.
Param threshold (10%) applies to inhibition; output criterion met when value >= threshold, criterion not met when value < threshold.

C1CCC(N=C(NC23CC4CC(CC(C4)C2)C3)N2CCOCC2)CC1 : criterion not met

// next entry
Textbook exercise: given the entry CC(C)NCC(O)COc1cccc2ccccc12 (configuration not stated) , state whether its inhibition is greater than or equal to 10%.
criterion met

----------
system_name: Sulfhydryl oxidase 1 (Homo sapiens) (UniProt O00391)
Sequence (O00391 whole entry, looked up): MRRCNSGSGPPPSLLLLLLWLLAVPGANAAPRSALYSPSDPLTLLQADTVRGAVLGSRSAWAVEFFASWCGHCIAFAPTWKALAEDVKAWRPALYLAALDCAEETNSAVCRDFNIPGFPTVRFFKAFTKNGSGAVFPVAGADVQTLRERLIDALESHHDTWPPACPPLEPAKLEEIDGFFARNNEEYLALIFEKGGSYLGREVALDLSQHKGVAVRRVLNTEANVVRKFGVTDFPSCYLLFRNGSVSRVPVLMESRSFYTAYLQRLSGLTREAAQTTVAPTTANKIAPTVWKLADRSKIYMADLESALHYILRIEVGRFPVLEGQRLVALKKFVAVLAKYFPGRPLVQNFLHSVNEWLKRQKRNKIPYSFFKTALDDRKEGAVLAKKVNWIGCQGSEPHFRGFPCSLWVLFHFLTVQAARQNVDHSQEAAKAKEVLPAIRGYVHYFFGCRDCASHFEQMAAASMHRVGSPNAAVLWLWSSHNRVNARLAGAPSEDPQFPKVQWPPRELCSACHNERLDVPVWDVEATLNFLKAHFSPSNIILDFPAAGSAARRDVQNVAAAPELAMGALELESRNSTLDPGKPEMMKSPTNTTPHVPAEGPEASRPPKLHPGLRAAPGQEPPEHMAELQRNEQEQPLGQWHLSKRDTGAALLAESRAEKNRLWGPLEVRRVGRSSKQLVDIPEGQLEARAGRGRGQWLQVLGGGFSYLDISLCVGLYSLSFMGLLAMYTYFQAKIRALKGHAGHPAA
procedure_details: inhibition of human sulfhydryl oxidase QSOX1 – biochemical, HyperBlu H2O2 luminescence, HTS, primary screen (AID 1347420); further: values above 100% were filed as inconclusive
measurement_setup: recombinant QSOX1, HyperBlu H2O2 luminescence; at 12.5 µM; hits give high values; active = any value above zero
Among all 1,300 compounds or so, about 980 (75%) were called active. About 4% were inconclusive and are not listed. This is one part of the list.
In this section, each of the molecules is paired with its reported inhibition.
Just the number in %, nothing appended.

O=C1Cc2c([nH]c3ccc(Br)cc23)-c2ccccc2N1 : 1.7

Which measured inhibition value corresponds to `Clc1ccc(N2CCN(Cc3cc4ccccn4n3)CC2)cc1` ?
63.8

Entry to check: `O=C1NCc2c1c1c3ccccc3[nH]c1c1[nH]c3ccccc3c21`
13.3

// same read-out, input: `O=Nc1ccc2oc(=O)ccc2c1`
85

Please give the result for `N[C@@H](Cc1cnc[nH]1)C(=O)O` too.
-5.8

Next up: `CN1C[C@H](C(=O)N[C@]2(C)O[C@@]3(O)[C@@H]4CCCN4C(=O)[C@H](Cc4ccccc4)N3C2=O)C[C@@H]2c3cccc4[nH]cc(c34)C[C@H]21`
50.6

----------
system_name: Sulfhydryl oxidase 1 (Homo sapiens)
procedure_details: inhibition of human sulfhydryl oxidase QSOX1 – biochemical, HyperBlu H2O2 luminescence, HTS, primary screen (AID 1347420); further: values above 100% were filed as inconclusive
measurement_setup: recombinant QSOX1, HyperBlu H2O2 luminescence; at 12.5 µM; hits give high values; active = any value above zero
About 980 (75%) of roughly 1,300 compounds were called active. Not shown: some 4% with an inconclusive outcome. Some of the results follow.
Overview of reported inhibition across a group of compounds:
Hi! Could you send only the number? It should be in %, unit omitted.

See these solved cases before continuing.
CC(=O)/C(C)=N/O : -16.7
CC(N)(Cc1ccc(O)cc1)C(=O)O (centres undefined) : 50.5
NC1CONC1=O (centres undefined) : 2.4
O=C(O)C1=CC(=C(c2ccc(O)c(C(=O)O)c2)c2ccc(O)c(C(=O)O)c2)C=CC1=O : 42.3
C[C@]12C[C@H](O)[C@H]3[C@@H](CCC4=CC(=O)CC[C@@]43C)[C@@H]1CC[C@@H]2C(=O)CO : 9.4
Cc1ccccc1N1C(=O)c2cc(S(N)(=O)=O)c(Cl)cc2NC1C (centres undefined) : 9.2
CN1CCc2cc(O)c(O)cc2C(c2ccccc2)C1 (centres undefined) : 67.4
O=C1NCN(c2ccccc2)C12CCN(CCCC(c1ccc(F)cc1)c1ccc(F)cc1)CC2 : 9.4
CC(O)C(O)[C@H]1CNc2nc(N)[nH]c(=O)c2N1 (some centres undefined) : -1.8
COC(=O)C(C)(N)Cc1ccc(O)cc1 (centres undefined) : 2.3

I would be grateful if you could share the reported inhibition for CC(C)NCC(O)COc1ccc(CCOCC2CC2)cc1 (centres undefined) .
11.4

Also COC(=O)C1=C(C)NC(C)=C(C(=O)OCCN(C)Cc2ccccc2)C1c1cccc([N+](=O)[O-])c1 (centres undefined) , if possible.
6.8

Try the compound `CN1CCc2cc(Cl)c(O)cc2[C@@H](c2ccccc2)C1`
35.8

Also `C[C@](N)(Cc1ccc(O)cc1)C(=O)O` , if possible.
2.9

Also `N[C@@H]1CONC1=O` ?
-0.9

Same question for Nc1ncnc2c1ncn2[C@@H]1O[C@H](COP(=O)(O)CP(=O)(O)OP(=O)(O)O)[C@H](O)C1O (some centres undefined) please.
13.7

Another: `CN(C)c1nc(N)c(C(=O)N=C(N)N)nc1Cl`
10.2

Can you handle CCCCCCCCCC(=O)NC(CN1CCOCC1)[C@H](O)c1ccccc1 (some centres undefined) next?
-17.8

Further, for `CCOC(=O)C1=C(C)NC(C)=C(C(=O)OCC)C1c1c(F)c(F)c(F)c(F)c1F` ?
-4.7

Queued: `CCCCC1C(=O)N(c2ccccc2)N(c2ccccc2)C1=O`
11.8

Now give it for CNCCC(Oc1ccccc1OC)c1ccccc1 (centres undefined) too.
2.8

----------
system_name: Sulfhydryl oxidase 1 (Homo sapiens) (UniProt O00391)
procedure_details: inhibition of human sulfhydryl oxidase QSOX1 – biochemical, HyperBlu H2O2 luminescence, HTS, primary screen (AID 1347420); further: values above 100% were filed as inconclusive
measurement_setup: recombinant QSOX1, HyperBlu H2O2 luminescence; at 12.5 µM; hits give high values; active = any value above zero
Out of some 1,300 compounds screened, about 980 (75%) were called active. Inconclusive results (about 4%) are left out. The list shows a part of the results.
Form entry, call: pick from True for active, False for inactive

COc1cc(Cc2cnc(N)nc2N)cc(OC)c1OC : False
COc1cc([C@@H]2c3cc4c(cc3[C@@H](O[C@@H]3O[C@@H]5CO[C@@H](C)O[C@H]5[C@H](O)[C@H]3O)[C@H]3COC(=O)[C@H]23)OCO4)cc(OC)c1O : True
CCOC(=O)C(C)Oc1cccc2c(=O)n(CC(=O)Nc3ccc4c(c3)OCCO4)ccc12 (stereo unspecified) : True
CCOC(=O)c1cnc2c(cnn2CC)c1NN=C(C)C : True
c1cnc2c(c1)ccc1cccnc12 : True

Query: recorded result category for `COc1cc(OC)c(/C=C2/C(=O)Nc3ccccc32)c(OC)c1` in this test
True

Proceed to `C1COC(NC(C2CC2)C2CC2)=N1`
False

Another compound to look at: `O=[N+]([O-])c1cccc2cn[nH]c12`
True

Subsequent entry: `CCCCNc1c(C(=O)OCC)c(C)nc2c1cnn2CC`
True

Check `O=C(O)CCCC[C@@H]1CCSS1` too.
True

Item: COc1cc([C@@H]2c3cc4c(cc3[C@H](O)C3COC(=O)[C@@H]32)OCO4)cc(OC)c1OC (stereo partly specified)
True

----------
system_name: Sulfhydryl oxidase 1 (Homo sapiens) (UniProt O00391)
procedure_details: inhibition of human sulfhydryl oxidase QSOX1 – biochemical, HyperBlu H2O2 luminescence, HTS, primary screen (AID 1347420); further: values above 100% were filed as inconclusive
measurement_setup: recombinant QSOX1, HyperBlu H2O2 luminescence; at 12.5 µM; hits give high values; active = any value above zero
Screen size: about 1,300 compounds; about 980 (75%) were called active. Inconclusive results (about 4%) are left out. This is one part of the list.
Quick rule for you: inhibition at 30% or higher means met, lower means not met.

# count of solved cases: 5
CN1CCN(C2=Nc3cc(Cl)ccc3Nc3ccccc32)CC1 : met
NC[C@@H]1O[C@H](c2ccccc2)Cc2c1ccc(O)c2O : met
CCCC[C@@]1(C2CCCC2)Cc2cc(OCC(=O)O)c(Cl)c(Cl)c2C1=O : not met
CC(CCc1ccccc1)NCC(O)c1ccc(O)c(C(N)=O)c1 (centres undefined) : not met
N[C@@H](CCCC(=O)O)C(=O)O : not met

Form field: inhibition at least 30%? Entry: `O=S(=O)(c1cccc2c(I)cccc12)N1CCCNCC1`
not met

Proceed to `O=C1CCC(c2ccc(-n3ccnc3)cc2)=NN1`
not met

Entry `Cc1ccc2c(c1)C(N1CCN(C)CC1)=Nc1cccnc1N2` please
met

Another compound to look at: `NC(=O)CC[C@H](N)C(=O)O`
not met

Next up: `CCOC(=O)C(C)(C)Oc1ccc(Cl)cc1`
not met

And what about the compound CC(C)COCC(CN(Cc1ccccc1)c1ccccc1)N1CCCC1 (centres undefined) ?
met

Please do the same for `Clc1ccc2c(c1)N=C(N1CCNCC1)c1ccccc1N2` as well.
met

Subsequent entry: COc1cc(C(O)CO)ccc1OS(=O)(=O)O (centres undefined)
not met

Try the compound `C=C1C(=O)O[C@@H]2[C@H]3O[C@]3(C)CCC=C(C)CC[C@@H]12`
not met

And what about the compound `CC(C)c1ccc2c(c1)c(SC(C)(C)C)c(CC(C)(C)C(=O)O)n2Cc1ccc(Cl)cc1` ?
not met

What do you have for `O=c1[nH]c2ccccc2c2ccccc12` ?
not met

Do the same for CCCCS(=N)(=O)CCC(N)C(=O)O (centres undefined) please
not met

`CN1CCN(C2=Nc3ccccc3Oc3ccc(Cl)cc32)CC1` , same question.
not met

Note, next up: COc1cc(C(O)CO)ccc1O (centres undefined)
not met

Cool, now `N#C/C(=C\c1ccc(-c2cc(Cl)ccc2Cl)o1)C(=O)Nc1cccc2ncccc12`
not met

Record: CCCCS(=N)(=O)CC[C@H](N)C(=O)O (some centres undefined)
not met

Another compound to check: c1ccc2c(c1)CCCC2C1=NCCN1 (centres undefined)
not met

Subsequent entry: `CC(C)C[C@H]1C(=O)N2CCC[C@H]2[C@]2(O)O[C@](NC(=O)[C@@H]3C=C4c5cccc6[nH]c(Br)c(c56)C[C@H]4N(C)C3)(C(C)C)C(=O)N12`
met
